Target: T1, soluble human FcRn (human, UniProt P55899 24-297; P61769 21-119, biotinylated (Sulfo-NHS-LC-Biotin) in the ELISA; amine-coupled to CM5 chip in SPR)
T1 construct: also called shFcRn; biotinylated shFcRn
Test: ELISA, competitor human IgG
valueType: IC50 (µM)

INSERT INTO measurements (binder, numericreadout) VALUES
  ('RFXTGXFGGLYPC (Pen at 3; PropargylGly at 6; Sar at 9; NMeLeu at 10; disulfide; C-terminal amide) [Peptide No. 261]', 160),
  ('QRFXTGXFGGLYPCNGP (Pen at 4; Thz at 7; disulfide; C-terminal amide) [Peptide No. 91]', 44);

a: RFXTGXFGGLYPC (Pen at 3; 4aminoPhe at 6; Sar at 9; NMeLeu at 10; disulfide; C-terminal amide) [Peptide No. 258]
b: RFXTGXFGGLYPC (Pen at 3; Thz(Me) (N-methyl-thiazolium) at 6; Sar at 9; NMeLeu at 10; disulfide; -CONH2) [Peptide No. 269]
c: RFXTGXFGGLYPC (Pen at 3; 4-PiperidylAla at 6; Sar at 9; NMeLeu at 10; disulfide; C-terminal amide) [Peptide No. 264]
d: RFXTGKFGGLYPC (Pen at 3; Sar at 9; NMeLeu at 10; disulfide; C-terminal amide) [Peptide No. 255]
e: RFXTGXFGGLYPC (Pen at 3; 4-PyridylAla at 6; Sar at 9; NMeLeu at 10; disulfide; C-terminal amide) [Peptide No. 268]
Ascending by IC50, please. Answer with the labels in sequence, matching the requested order.
e, b, a, d, c
(e: 1.3 µM, b: 2.4 µM, a: 4.6 µM, d: 40 µM, c: 85 µM)

P: RFXTGXFGGLYPC (Pen at 3; triazolylAla at 6; Sar at 9; NMeLeu at 10; disulfide; C-terminal amide) [Peptide No. 271]
Q: QRFXTGXFGGLYPCNGP (Pen at 4; (1Me)His at 7; disulfide; C-terminal amide) [Peptide No. 138]
I'd appreciate it if you could identify which of P and Q has the greater IC50. Write the label of whichever entry you select.
P
(P: 5.7 µM, Q: 3.4 µM)

A: RFXTGRFGGLYPC (Pen at 3; Sar at 9; NMeLeu at 10; disulfide; C-terminal amide) [Peptide No. 256]
B: QRFXTGHFGGLYPCNGP (Pen (L-penicillamine) at 4; disulfide; C-terminal amide) [Peptide No. 32]
C: RFXTGXFGGLYPC (not fully specified; Pen at 3; His(Me) (mono-methylated histidine) at 6; disulfide; C-terminal amide) [Peptide No. 259]
D: RFXTGXFGGLYPC (not fully specified; Pen at 3; ThienylAla at 6; Sar at 9; NMeLeu at 10; disulfide; C-terminal amide) [Peptide No. 251]
Kindly order the items shown according to IC50, from the highest value down. Answer with the labels in sequence, matching the requested order.
D, A, C, B

src = patent US20070254831A1
